Tested on: Bacillus subtilis
Experiment: Antibacterial activity against Bacillus subtilis after 24 hrs by micro broth dilution method
Format: functional
Recorded MIC for the following molecules
TEST_READOUT: MIC (µg/mL)

MOL_SMILES	INEQUALITY_OPERATOR	RESULT_NUMBER
CCOc1ccc2c(c1)sc1nc(-c3ccccc3)c(COCCCn3cnc([N+](=O)[O-])c3)n12	=	256
CCOc1ccc2c(c1)sc1nc(-c3ccccc3)c(COCCCBr)n12	>	512
CCOc1ccc2c(c1)sc1nc(-c3ccccc3)c(COCCCn3cncn3)n12	>	512
c1ccc(-c2nc3sc4ccccc4n3c2COCCCn2cncn2)cc1	=	8
CCOc1ccc2c(c1)sc1nc(-c3ccccc3)c(COCCCCCn3cnc([N+](=O)[O-])c3)n12	=	256
CCOc1ccc2c(c1)sc1nc(-c3ccccc3)c(COCCCCCCCCCCn3cnc([N+](=O)[O-])c3)n12	=	32
O=[N+]([O-])c1cn(CCCOCc2c(-c3ccccc3)nc3sc4ccccc4n23)cn1	=	2
CCOc1ccc2c(c1)sc1nc(-c3ccccc3)c(COCCCCCCCCCCBr)n12	>	512
CCOc1ccc2c(c1)sc1nc(-c3ccccc3)c(COCCCn3c([N+](=O)[O-])cnc3C)n12	=	16
O=[N+]([O-])c1cn(CCCCCCCCCCOCc2c(-c3ccccc3)nc3sc4ccccc4n23)cn1	=	64
Cc1ncc([N+](=O)[O-])n1CCCOCc1c(-c2ccccc2)nc2sc3ccccc3n12	=	4
CCOc1ccc2c(c1)sc1nc(-c3ccccc3)c(COCCCCCCCCCCn3cncn3)n12	=	32
Cc1ncc([N+](=O)[O-])n1CCCCCOCc1c(-c2ccccc2)nc2sc3ccccc3n12	=	16
BrCCCCCOCc1c(-c2ccccc2)nc2sc3ccccc3n12	=	4
O=C(N[C@H](CO)[C@H](O)c1ccc([N+](=O)[O-])cc1)C(Cl)Cl	=	32
CCOc1ccc2c(c1)sc1nc(-c3ccccc3)c(COCCCCCn3c([N+](=O)[O-])cnc3C)n12	=	512
c1ccc(-c2nc3sc4ccccc4n3c2COCCCCCn2cncn2)cc1	=	32
CCOc1ccc2c(c1)sc1nc(-c3ccccc3)c(COCCCCCCCCCCn3c([N+](=O)[O-])cnc3C)n12	=	32
CCOc1ccc2c(c1)sc1nc(-c3ccccc3)c(COCCCCCBr)n12	=	128
